molecular target: human CD33 S128N (human) (UniProt P20138); assay: SPR, Fab captured, 37C
Sequence (P20138 18-259 S128N): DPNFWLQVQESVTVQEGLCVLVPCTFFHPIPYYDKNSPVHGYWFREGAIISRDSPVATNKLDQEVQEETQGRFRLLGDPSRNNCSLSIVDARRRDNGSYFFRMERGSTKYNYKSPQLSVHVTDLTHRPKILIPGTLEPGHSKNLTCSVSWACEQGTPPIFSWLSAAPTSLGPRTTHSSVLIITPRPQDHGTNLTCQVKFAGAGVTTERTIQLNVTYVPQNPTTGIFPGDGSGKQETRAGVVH
pKd: −log10 of the molar value.

binder	pKd
ADI-11839 Fab (Fab, V domains shown) VH: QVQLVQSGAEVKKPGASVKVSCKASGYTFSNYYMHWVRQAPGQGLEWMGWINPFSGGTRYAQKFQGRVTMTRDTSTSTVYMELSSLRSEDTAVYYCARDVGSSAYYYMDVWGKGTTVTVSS VL: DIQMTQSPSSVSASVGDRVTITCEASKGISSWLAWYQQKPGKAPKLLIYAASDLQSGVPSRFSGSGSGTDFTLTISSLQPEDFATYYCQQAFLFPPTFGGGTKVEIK	7.53
ADI-10157 Fab (Fab, V domains shown) VH: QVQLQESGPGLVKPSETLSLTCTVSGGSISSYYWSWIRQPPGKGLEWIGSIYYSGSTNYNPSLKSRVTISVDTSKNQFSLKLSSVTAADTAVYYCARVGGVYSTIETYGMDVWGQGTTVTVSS VL: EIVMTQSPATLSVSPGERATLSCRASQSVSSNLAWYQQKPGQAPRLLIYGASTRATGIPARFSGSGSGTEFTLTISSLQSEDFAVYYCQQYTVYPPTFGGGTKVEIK	6.79
ADI-11826 Fab (Fab, V domains shown) VH: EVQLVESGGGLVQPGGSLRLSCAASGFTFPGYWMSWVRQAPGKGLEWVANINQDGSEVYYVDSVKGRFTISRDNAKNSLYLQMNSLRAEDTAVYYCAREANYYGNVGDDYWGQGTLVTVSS VL: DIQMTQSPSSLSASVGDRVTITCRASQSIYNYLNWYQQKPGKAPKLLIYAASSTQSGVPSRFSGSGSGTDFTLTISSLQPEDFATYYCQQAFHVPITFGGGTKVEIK	8.58
ADI-11825 Fab (Fab, V domains shown) VH: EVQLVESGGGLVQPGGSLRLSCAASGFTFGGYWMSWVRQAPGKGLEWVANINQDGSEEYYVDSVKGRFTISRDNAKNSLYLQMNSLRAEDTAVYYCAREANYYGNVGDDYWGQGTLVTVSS VL: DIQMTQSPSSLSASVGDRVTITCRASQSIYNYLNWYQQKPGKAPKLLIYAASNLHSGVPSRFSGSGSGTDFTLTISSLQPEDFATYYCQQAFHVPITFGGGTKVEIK	8.51
ADI-10161 Fab (Fab, V domains shown) VH: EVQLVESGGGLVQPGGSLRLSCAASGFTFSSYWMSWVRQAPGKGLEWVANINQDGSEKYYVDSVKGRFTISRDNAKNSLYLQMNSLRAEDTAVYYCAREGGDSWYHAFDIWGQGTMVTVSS VL: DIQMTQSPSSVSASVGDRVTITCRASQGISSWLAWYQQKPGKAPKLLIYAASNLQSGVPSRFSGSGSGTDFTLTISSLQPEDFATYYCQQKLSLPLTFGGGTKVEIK	7.20
ADI-11812 Fab (Fab, V domains shown) VH: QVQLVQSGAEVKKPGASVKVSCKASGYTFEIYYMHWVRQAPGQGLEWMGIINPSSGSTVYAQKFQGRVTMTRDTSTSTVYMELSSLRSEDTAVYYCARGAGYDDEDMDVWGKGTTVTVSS VL: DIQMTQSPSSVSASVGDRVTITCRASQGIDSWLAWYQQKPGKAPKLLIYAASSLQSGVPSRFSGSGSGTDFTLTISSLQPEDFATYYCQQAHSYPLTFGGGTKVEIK	8.70
ADI-11828 Fab (Fab, V domains shown) VH: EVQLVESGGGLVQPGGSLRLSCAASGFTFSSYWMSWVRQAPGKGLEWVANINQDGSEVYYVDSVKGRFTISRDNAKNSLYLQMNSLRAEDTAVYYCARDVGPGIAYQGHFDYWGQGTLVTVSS VL: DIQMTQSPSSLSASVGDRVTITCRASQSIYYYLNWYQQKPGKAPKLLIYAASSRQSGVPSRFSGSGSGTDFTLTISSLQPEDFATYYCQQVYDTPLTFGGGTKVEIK	8.27
